# test: Pharmacokinetic study: compound concentration in mouse blood plasma after PO and IV administration
# Assay type: in vivo, mice
# assay setup: mouse, plasma, po, 30 mg/kg, PO 30 mg/kg, 4 h, read-out: Concentration in Plasma, Mouse 3

smiles string: CC(C)N(CCCCSc1n[nH]c(=O)[nH]1)c1cnc(-c2ccccc2)c(-c2ccccc2)n1
concentration at 4 h, ng/mL: 22.5

----------
# test: Pharmacokinetic study: compound concentration in mouse blood plasma after PO and IV administration
# Format: in vivo, mice
# assay setup: mouse, plasma, po, 30 mg/kg, PO 30 mg/kg, 4 h, outlier left out, read-out: Concentration in Plasma, Mean

smiles string: CC(C)N(CCCCSc1n[nH]c(=O)[nH]1)c1cnc(-c2ccccc2)c(-c2ccccc2)n1
unit: ng/mL
concentration at 4 h: 34.5

----------
# test: Pharmacokinetic study: compound concentration in mouse blood plasma after PO and IV administration
# Format: in vivo, mice
# assay setup: mouse, plasma, po, 30 mg/kg, PO 30 mg/kg, 7 h, n=3, read-out: Concentration in Plasma, Mean
readout type: concentration at 7 h (ng/mL)

smiles string: CC(C)N(CCCCSc1n[nH]c(=O)[nH]1)c1cnc(-c2ccccc2)c(-c2ccccc2)n1
recorded measurement: 28.3

----------
# test: Pharmacokinetic study: compound concentration in mouse blood plasma after PO and IV administration
# Type: in vivo, mice
# assay setup: mouse, plasma, iv, 30 mg/kg, IV 30 mg/kg, 2 h, read-out: Concentration in Plasma, Mouse 3

smiles string: CC(C)N(CCCCSc1n[nH]c(=O)[nH]1)c1cnc(-c2ccccc2)c(-c2ccccc2)n1
concentration at 2 h [ng/mL]: 131

----------
# test: Pharmacokinetic study: compound concentration in mouse blood plasma after PO and IV administration
# Format: in vivo, mice
# assay setup: mouse, plasma, po, 30 mg/kg, PO 30 mg/kg, 2 h, read-out: Concentration in Plasma, Mouse 1

smiles string: CC(C)N(CCCCSc1n[nH]c(=O)[nH]1)c1cnc(-c2ccccc2)c(-c2ccccc2)n1
concentration at 2 h, ng/mL: 186

----------
# test: Pharmacokinetic study: compound concentration in mouse blood plasma after PO and IV administration
# Type: in vivo, mice
# assay setup: mouse, plasma, iv, 30 mg/kg, IV 30 mg/kg, 2 h, read-out: Concentration in Plasma, Mouse 1

compound: CC(C)N(CCCCSc1n[nH]c(=O)[nH]1)c1cnc(-c2ccccc2)c(-c2ccccc2)n1 [Compound A3]
concentration at 2 h / ng/mL: 203

----------
# test: Pharmacokinetic study: compound concentration in mouse blood plasma after PO and IV administration
# Format: in vivo, mice
# assay setup: mouse, plasma, po, 30 mg/kg, PO 30 mg/kg, 2 h, outlier left out, read-out: Concentration in Plasma, Mean
readout type: concentration at 2 h (ng/mL)

smiles string: CC(C)N(CCCCSc1n[nH]c(=O)[nH]1)c1cnc(-c2ccccc2)c(-c2ccccc2)n1
readout type: concentration at 2 h
unit: ng/mL
recorded measurement: 119
